# reported Ki; entries follow
# System Under Test: D(2) dopamine receptor (Homo sapiens)
# Sequence (P14416 whole entry): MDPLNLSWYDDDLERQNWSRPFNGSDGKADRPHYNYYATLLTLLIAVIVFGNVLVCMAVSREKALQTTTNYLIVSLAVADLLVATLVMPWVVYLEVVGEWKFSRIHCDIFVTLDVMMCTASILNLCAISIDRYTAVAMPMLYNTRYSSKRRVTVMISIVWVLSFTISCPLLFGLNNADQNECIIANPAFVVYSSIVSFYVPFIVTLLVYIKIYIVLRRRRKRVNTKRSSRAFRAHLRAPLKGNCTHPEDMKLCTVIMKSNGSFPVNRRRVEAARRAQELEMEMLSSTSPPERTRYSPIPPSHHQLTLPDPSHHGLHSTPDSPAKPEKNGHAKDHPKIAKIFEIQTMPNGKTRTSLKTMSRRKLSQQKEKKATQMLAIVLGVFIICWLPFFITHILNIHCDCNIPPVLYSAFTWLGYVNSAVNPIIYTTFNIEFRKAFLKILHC
Give the value, in units of nM, as a plain number.

Requested read-out: Ki. Entry: O=C1Nc2cccc3c2[C@]1(CCCCN1CC=C(c2ccccc2)CC1)CCC3 105

Similarly, Cc1cccc(C#N)c1-c1cccc2c1-c1cccc3c1[C@@H](C2)N(C)CC3 (stereo in doubt; form 1) ? 2470

Similarly, Cc1cccc(C#N)c1-c1cccc2c1-c1cccc3c1[C@@H](C2)N(C)CC3 (stereo in doubt; form 2) ? 498

Similarly, CN1CCc2cccc3c2[C@H]1Cc1cccc(-c2c(OS(=O)(=O)C(F)(F)F)cccc2OS(=O)(=O)C(F)(F)F)c1-3 ? 2260

###

Sequence of the target: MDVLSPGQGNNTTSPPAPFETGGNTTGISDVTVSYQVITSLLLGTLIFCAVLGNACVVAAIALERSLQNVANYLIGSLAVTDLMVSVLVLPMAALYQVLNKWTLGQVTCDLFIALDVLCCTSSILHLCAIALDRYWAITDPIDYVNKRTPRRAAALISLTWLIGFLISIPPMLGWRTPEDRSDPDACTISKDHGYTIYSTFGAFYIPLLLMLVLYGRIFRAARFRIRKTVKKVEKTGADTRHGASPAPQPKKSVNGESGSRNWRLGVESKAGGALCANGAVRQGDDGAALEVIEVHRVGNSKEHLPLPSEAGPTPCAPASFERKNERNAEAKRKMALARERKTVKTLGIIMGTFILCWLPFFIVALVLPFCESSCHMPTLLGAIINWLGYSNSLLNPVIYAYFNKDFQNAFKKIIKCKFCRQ
# reported Ki; entries follow
Give the value, in units of nM, as a plain number.

[[record]]
compound = "Cc1cccc(O)c1-c1cccc2c1-c1cccc3c1[C@@H](C2)N(C)CC3 (stereo in doubt; form 2)"
number = 319


Requested read-out: Ki. Entry: Cc1cccc(C#N)c1-c1cccc2c1-c1cccc3c1[C@@H](C2)N(C)CC3 (stereo in doubt; form 1) 778

###

# System Under Test: UniProt:P08908
# Sequence (P08908 whole entry): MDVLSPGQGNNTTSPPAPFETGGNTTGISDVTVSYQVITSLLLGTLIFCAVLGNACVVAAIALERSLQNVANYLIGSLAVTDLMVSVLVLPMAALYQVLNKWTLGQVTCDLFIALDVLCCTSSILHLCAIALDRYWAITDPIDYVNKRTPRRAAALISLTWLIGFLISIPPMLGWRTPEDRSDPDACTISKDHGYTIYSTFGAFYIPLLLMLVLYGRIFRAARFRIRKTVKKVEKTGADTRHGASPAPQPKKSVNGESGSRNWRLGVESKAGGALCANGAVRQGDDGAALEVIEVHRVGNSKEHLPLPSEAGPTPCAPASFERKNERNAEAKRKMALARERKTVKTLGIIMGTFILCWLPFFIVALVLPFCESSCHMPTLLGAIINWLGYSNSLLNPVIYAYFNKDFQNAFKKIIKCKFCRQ
# reported Ki; entries follow
Give the value, in units of nM, as a plain number.

[[record]]
molecule = "COc1cccc(OC)c1-c1cccc2c1-c1cccc3c1[C@@H](C2)N(C)CC3"
system_under_test = "UniProt:P08908"
parameter = "Ki"
u = "nM"
number = 554


Requested read-out: Ki. Entry: CN1CCc2cccc3c2[C@H]1Cc1cccc(-c2c(O)cccc2O)c1-3 139

Similarly, CN1CCc2cccc3c2[C@H]1Cc1cccc(-c2ccccc2)c1-3 ? 1.8

Similarly, O=C1Nc2cccc3c2[C@]1(CCCCN1CC=C(c2ccccc2)CC1)CCC3 ? 170

Similarly, Cc1cccc(O)c1-c1cccc2c1-c1cccc3c1[C@@H](C2)N(C)CC3 (stereo in doubt; form 1) ? 48.8

###

This section lists Ki readings for 5-hydroxytryptamine receptor 7 (Rattus norvegicus).
Give the value, in units of µM, as a plain number.

[[record]]
molecule = "Cc1cccc(C#N)c1-c1cccc2c1-c1cccc3c1[C@@H](C2)N(C)CC3 (stereo in doubt; form 2)"
parameter = "Ki"
number = 0.00379

[[record]]
molecule = "COc1cccc(OC)c1-c1cccc2c1-c1cccc3c1[C@@H](C2)N(C)CC3"
parameter = "Ki"
number = 0.013

[[record]]
molecule = "CN1CCc2cccc3c2[C@H]1Cc1cccc(-c2c(OS(=O)(=O)C(F)(F)F)cccc2OS(=O)(=O)C(F)(F)F)c1-3"
parameter = "Ki"
number = 0.708

[[record]]
molecule = "O=C1Nc2cccc3c2[C@]1(CCCCN1CC=C(c2ccccc2)CC1)CCC3"
parameter = "Ki"
number = 0.00331


Now consider the entry below.
Requested read-out: Ki. Entry: Cc1cccc(C#N)c1-c1cccc2c1-c1cccc3c1[C@@H](C2)N(C)CC3 (stereo in doubt; form 1) 0.0208
